- Method description: In vitro binding affinity towards 5-hydroxytryptamine 1D receptor beta by using [3H]5-HT as radioligand
Measurement type: Ki (nM)
One number for each entry, in nM.

Reported Ki, compound CCCNC1CCc2cccc(OS(=O)(=O)C(F)(F)F)c2C1 (stereo unspecified) : ____ 169
